Where do the numbers come from? From ChEMBL document CHEMBL3988442.

test system: Trypanosoma cruzi; assay: Trypanosoma cruzi phosphomannomutase and mannose-1-phosphate guanylyltransferase assay; type: functional; design: scale not given: direction of the effect not stated beside the values; conditions: 10 µM
Entries annotated with measured Percent Effect
Write it as a number; the unit % goes unstated.

The cases that follow already have their Percent Effect on record.
[[record]]
molecule = "Cc1nc(CN2CCCN(C(=O)c3ccccn3)CC2)oc1C"
readout_name = "Percent Effect"
result = -0.686

[[record]]
molecule = "Cc1ncc(CNC(=O)Nc2cc(C(F)(F)F)c[nH]c2=O)s1"
readout_name = "Percent Effect"
result = -5.34


Write down Percent Effect measured for item CCc1nc(CN(C)C2CCN(CCn3cc(C#N)cn3)C2)no1 (centres undefined)
-7.64

Look up and report measured Percent Effect for this entry: `CCN1C[C@H]2CCN(C(=O)NC3CCCC3)CC[C@H]2S1(=O)=O`
-3.54

# return recorded Percent Effect for input c1cnnc(N2CCCC(NCc3ccc(-n4cccn4)cc3)C2)c1 (centres undefined)
-0.686

Identify measured Percent Effect corresponding to `CCCNC(=O)CSc1nnc2[nH]c(=O)cc(CC)n12`
1.37

State its Percent Effect: `O=C1CN(Cc2nnc(-c3ccc(Br)o3)o2)CCN1`
0.486

# return recorded Percent Effect for entry `O=C(Nc1ccccc1OC(F)F)C1=NN(c2ccccc2)C(=O)CN1`
-3.87

Could you please provide reported Percent Effect for COc1ccc(CN2CCCCC2CNC(=O)OC(C)(C)C)cc1F (centres undefined) ? Thanks!
-1.86

====

molecular target: AMP-activated protein kinase, AMPK (Homo sapiens) (UniProt P54646+O43741+P54619+Q9UGJ0+Q9Y478+Q13131+Q9UGI9); experiment: AMP-dependent Kinase enzyme assay. An in vitro enzyme assay that detects ADP turnover that is directly proportional to AMPK activity. This uses naive AMPK that is activated during the assay with MK-8722; type: functional; design: scale not given: direction of the effect not stated beside the values; conditions: 30 µM
Measured Percent Effect accompanies every entry in the list below.

In the examples that follow, each entry is paired with its recorded Percent Effect.
[[record]]
molecule = "NC(=O)c1cnn2c1NCC(CNCCCOc1ccccc1F)C2 (stereo not drawn)"
readout_name = "Percent Effect"
result = "0.424%"

[[record]]
molecule = "O=C(c1cnccn1)N1CCN(Cc2csc(-c3ccccc3)n2)CC1"
readout_name = "Percent Effect"
result = "9.72%"

[[record]]
molecule = "O=C(CCOCc1ccccc1)N1CCCC1c1noc(C2CC2)n1 (stereo not drawn)"
readout_name = "Percent Effect"
result = "-9.42%"

[[record]]
molecule = "CC(C)c1noc(C(C)N2CCN(CCN3CCCC3=O)CC2)n1 (stereo not drawn)"
readout_name = "Percent Effect"
result = "-10%"

[[record]]
molecule = "CCCNC(=O)c1c(-n2cnnn2)sc2c1CCC2"
readout_name = "Percent Effect"
result = "4.3%"

[[record]]
molecule = "COCCN1CC[C@@H]2OC[C@H](C(=O)NCc3cccs3)C[C@@H]2C1"
readout_name = "Percent Effect"
result = "0.443%"

[[record]]
molecule = "CC(C)CN(C)c1ccc(C(=O)N2CCCC2c2cnn(C)c2)cn1 (stereo not drawn)"
readout_name = "Percent Effect"
result = "-6.48%"

[[record]]
molecule = "CC(C)COCc1cncc2c1CCN(Cc1cnn(C)c1)C2"
readout_name = "Percent Effect"
result = "2.31%"

[[record]]
molecule = "CC(=O)N1CCCN(C(=O)NCCc2cc(Cl)cc(Cl)c2)CC1"
readout_name = "Percent Effect"
result = "10.6%"

[[record]]
molecule = "O=C(c1ccco1)N1CCCC1C1CCN(Cc2ccccc2)CC1 (stereo not drawn)"
readout_name = "Percent Effect"
result = "6.52%"


Assign Percent Effect to the following record: Cc1nc(Nc2nnc(C)s2)cc(C2CCCN2C)n1 (stereo not drawn)
3.75%

Please supply the value of reported Percent Effect for the item `Cc1cc(C)n(C2CN(CC(=O)N3CCOCC3)C2)n1`
6.75%

Check the records and state Percent Effect for c1ccc(-c2nc(CN3CCCC3Cn3cncn3)cs2)cc1 (stereo not drawn)
-1.4%

Let me know recorded Percent Effect for CCOCC1CN(Cc2ccoc2)Cc2ncn(CC3CC3)c21 (stereo not drawn) , thanks.
0.834%

Please give the documented Percent Effect of `COc1ccccc1S(=O)(=O)Nc1ccc2c(C(=O)O)c[nH]c2c1`
-64.6%

# return recorded Percent Effect for entry `CCc1nc(NS(=O)(=O)c2cc(C)ccc2F)no1`
-9.72%

Give the value of Percent Effect reported for the following: `CCc1nnc(CN(C)c2nc(C(C)C)nc3c2cnn3C)o1`
6.88%

Supply measured Percent Effect of CN(C)C(CNS(=O)(=O)c1ccc(F)cc1F)c1cccn1C (stereo not drawn) in your reply.
2.21%

Return Percent Effect (reported value) for this molecule: Cc1nccnc1N1CCC2(CCCN(C3CCOCC3)C2=O)C1 (stereo not drawn)
0.961%
